Listed molecules paired with reported water solubility compared to the hardly water-soluble F1
Assay: Evaluation of water solubility of deprotected pterostilbene linked bodies
Type: physicochemical
Settings: ion-exchanged water; solubility threshold could not be measured because the compound was extremely water-soluble
REPORTED_PROPERTY: water solubility compared to the hardly water-soluble F1

| MOLECULE | MEASUREMENT |
| --- | --- |
| COc1cc(/C=C/c2ccc(OCC(CO)(CO)COC(COC(CO)CO)COC(CO)CO)cc2)cc(OC)c1 | ≥ 2×10^4 times |
| COc1cc(/C=C/c2ccc(OCC(CO)(CO)COCC(COC(CO)CO)(COC(CO)CO)COC(CO)CO)cc2)cc(OC)c1 | ≥ 2×10^4 times |
| COc1cc(/C=C/c2ccc(OCC(CO)(CO)COC(COCC(O)CO)COCC(O)CO)cc2)cc(OC)c1 (stereo not shown) | ≥ 2×10^4 times |
| COc1cc(/C=C/c2ccc(OCC(CO)(CO)COC(COCC(CO)(CO)CO)COCC(CO)(CO)CO)cc2)cc(OC)c1 | ≥ 2×10^4 times |
